# Tested on: FaDu
# testSummary: Antiproliferative activity against human FADU cells after 96 hrs by SRB assay
# Assay type: functional, cell-based
Recorded measurements of IC50, one per entry

Examples from the recorded data:
C/C(=C\CC/C(C)=C/CC[C@@H]1[C@@]2(C)CCC(=O)C(C)(C)[C@@H]2CC[C@@]1(C)O)CC/C=C(\C)C(=O)OCCCOC(=O)/C(C)=C/CC/C(C)=C/CC/C(C)=C/CC[C@@H]1[C@@]2(C)CC[C@@H](O)C(C)(C)[C@@H]2CC[C@@]1(C)O = 25.1 µM
C/C(=C\CC/C(C)=C/CC[C@@H]1[C@@]2(C)CCC(=O)C(C)(C)[C@@H]2CC[C@@]1(C)O)CC/C=C(\C)C(=O)OCCCOC(=O)[C@@]1(C)[C@H](O)CC[C@@]2(C)[C@H]1CC[C@]1(C)[C@@H]2C(=O)C=C2[C@@H]3[C@@H](C)[C@H](C)CC[C@]3(C)CC[C@]21C = > 30 µM
C/C(=C\CC/C(C)=C/CC[C@@H]1[C@@]2(C)CCC(=O)C(C)(C)[C@@H]2CC[C@@]1(C)O)CC/C=C(\C)C(=O)OCCBr = > 30 µM
C=C(C)[C@@H]1CC[C@]2(C)CC[C@]3(C)[C@H](CC[C@@H]4[C@@]5(C)CC[C@@H](O)[C@](C)(C(=O)OCCCCBr)[C@@H]5CC[C@]43C)[C@@H]12 = > 30 µM

Let us examine a further case.
So what IC50 did C/C(=C\CC/C(C)=C/CC[C@@H]1[C@@]2(C)CCC(=O)C(C)(C)[C@@H]2CC[C@@]1(C)O)CC/C=C(\C)C(=O)OCCCBr get with FaDu?
> 30 µM
